biological target: human orexin 2 receptor (Homo sapiens (Human), UniProt O43614); test: Human orexin 2 receptor radioligand binding ([3H]-EMPA); conditions: HEK293 stably expressing human orexin 2 receptor; [3H]-EMPA; apparent Ki; read-out: hOX2 Ki
Sequence (O43614 whole entry): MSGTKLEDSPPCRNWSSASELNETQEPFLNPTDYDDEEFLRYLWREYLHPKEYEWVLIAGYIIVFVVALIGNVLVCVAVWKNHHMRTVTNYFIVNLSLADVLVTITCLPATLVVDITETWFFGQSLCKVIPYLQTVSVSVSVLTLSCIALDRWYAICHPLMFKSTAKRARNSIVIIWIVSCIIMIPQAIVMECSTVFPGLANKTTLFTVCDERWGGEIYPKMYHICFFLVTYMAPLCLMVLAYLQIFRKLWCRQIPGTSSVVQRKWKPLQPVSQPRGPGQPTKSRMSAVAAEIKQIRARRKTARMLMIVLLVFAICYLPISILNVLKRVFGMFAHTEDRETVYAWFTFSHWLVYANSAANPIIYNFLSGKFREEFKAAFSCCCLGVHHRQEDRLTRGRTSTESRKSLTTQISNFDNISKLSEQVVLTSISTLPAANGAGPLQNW
pKi: −log10 of the molar value.
EXPERIMENTAL ENDPOINT: pKi

a: C[C@H]1[C@H](Nc2ccc(C(F)(F)F)cn2)CCCN1C(=O)c1cc(F)ccc1-n1nccn1 (racemic) [Example 24]
b: Cc1cnc(C(=O)N2CCC[C@@H](Nc3nc4ccccc4o3)[C@@H]2C)c(-n2nccn2)c1 [Example 73]
Request: Between a and b , which one has the lower reported pKi value? Selection: enter the item's label.
Response: b
(b: 5.72, a: 6.49)

P: COc1ccc(-n2nccn2)c(C(=O)N2CCC[C@@H](Nc3ccc(C(F)(F)F)cn3)[C@@H]2C)c1 (racemic) [Example 19]
Q: Cc1cnc(C(=O)N2CCC[C@@H](Nc3ccc(Cl)cn3)[C@@H]2C)c(-c2ncco2)c1 [Example 77]
Request: Please compare: P and Q . Report which one has the smaller pKi value. Refer to your chosen item by its label in the answer.
Response: Q

* * *

molecular target: human orexin 2 receptor (Homo sapiens (Human)); assay: Human orexin 2 receptor radioligand binding ([3H]-EMPA); settings: HEK293 stably expressing human orexin 2 receptor; [3H]-EMPA; apparent Ki; read-out: hOX2 Ki
Where a name gives a salt, the structure may show the parent alone.
EXPERIMENTAL ENDPOINT: Ki (µM)

{"MOLECULE": "Cc1ccc(-c2ncccn2)c(C(=O)N2CCC[C@@H](Nc3ccc(C(F)(F)F)cn3)[C@@H]2C)n1 (racemic) [Example 23, hydrochloride]", "Ki (µM)": 0.208}

a: C[C@H]1[C@H](Nc2ncc3ccccc3n2)CCCN1C(=O)c1ccccc1-n1nccn1 (racemic) [Example 39]
b: Cc1cnc(C(=O)N2CCC[C@@H](Nc3nc4ccccc4o3)[C@@H]2C)c(-c2ncco2)c1 [Example 88]
Request: Hey, between a and b which has a smaller measured Ki? Output the label that corresponds to your choice.
Response: a
(a: 0.189 µM, b: 3.3 µM)

* * *

rat orexin 1 receptor (Rattus norvegicus, UniProt P56718) data, read-out Ki
EXPERIMENTAL ENDPOINT: Ki (nM)

{"MOLECULE": "COc1ccc(-n2nccn2)c(C(=O)N2CCC[C@@H](Nc3ccc(C(F)(F)F)cn3)[C@@H]2C)c1 (racemic)", "DATA VALUE": 10}
{"MOLECULE": "Cc1cccc(C(=O)N2CCC[C@@H](Nc3ccc(C(F)(F)F)cn3)[C@@H]2C)c1-n1nccn1 (racemic)", "DATA VALUE": 14}
{"MOLECULE": "Cc1ccc(C(=O)N2CCC[C@@H](Nc3nc4ccccc4o3)[C@@H]2C)c(-n2ccnn2)n1", "DATA VALUE": 54}

1: Cc1cnc(C(=O)N2CCC[C@@H](Nc3cnc(Cl)cn3)[C@@H]2C)c(-c2ncco2)c1
2: C[C@H]1[C@H](Oc2ncc(C(F)(F)F)cn2)CCCN1C(=O)c1ccccc1-n1nccn1
Request: Which value of Ki is numerically greater: that of 1 or that of 2 ? Kindly state the label of the option you pick.
Response: 1

* * *

The next entries give measured Ki for rat orexin 1 receptor (Rattus norvegicus).
EXPERIMENTAL ENDPOINT: Ki (µM)

{"COMPOUND": "Cc1cnc(C(=O)N2CCC[C@@H](Nc3ncc(C(F)(F)F)cn3)[C@@H]2C)c(-n2nccn2)c1 [Example 94]", "EXPERIMENTAL ENDPOINT": "Ki", "DISPLAY UNIT": "µM", "DATA VALUE": 0.038}
{"COMPOUND": "Cc1ccc(C(=O)N2CCC[C@@H](Nc3cnc(C(F)(F)F)cn3)[C@@H]2C)c(-n2nccn2)n1 [Example 74]", "EXPERIMENTAL ENDPOINT": "Ki", "DISPLAY UNIT": "µM", "DATA VALUE": 0.04}
{"COMPOUND": "Cc1ccc(C(=O)N2CCC[C@@H](Nc3ncc(C(F)(F)F)cn3)[C@@H]2C)c(-n2ccnn2)n1 [Example 70]", "EXPERIMENTAL ENDPOINT": "Ki", "DISPLAY UNIT": "µM", "DATA VALUE": 0.17}
{"COMPOUND": "C[C@H]1[C@H](Nc2nc3cc(Cl)ccc3o2)CCCN1C(=O)c1ccccc1-n1nccn1 (racemic) [Example 45]", "EXPERIMENTAL ENDPOINT": "Ki", "DISPLAY UNIT": "µM", "DATA VALUE": 0.028}
